# Assay Procedure: qHTS of pediatric cancer cell lines to identify multiple opportunities for drug repurposing: Primary screen for NB-EBc1 cells (AID 1347095);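 note: plate controls were DMSO neutral control for no effect and bortezomib for full effect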
# Conditions: NB-EBc1 neuroblastoma viability, CellTiter-Glo luminescence, 48 h; series mostly up to 46 µM
Records with an inconclusive call do not appear. Active and inactive are the calls of the source. Calls come from the whole dose curve; as a rule, active = well fitted cell-killing curve with a large enough effect; inconclusive = small, poorly fitted or top-dose-only effect; inactive = no such curve, though single readings can be large or run the other way.
A correct response names exactly one class from true (active), false (inactive)

[in] Per the records of this test, what outcome belongs to `C[C@]12CCC(=O)C=C1[C@@H]1C[C@@H]1[C@H]1[C@@H]3[C@@H]4C[C@@H]4[C@@]4(CCC(=O)O4)[C@@]3(C)CC[C@@H]12` ?
[out] false

###

# Test system: KB-3-1
# Assay Procedure: Cytotoxic Profiling of Annotated Libraries Using Quantitative High-Throughput Screening (AID 1296008); note: nearly all actives have a fitted effect of over 60% in size
# Conditions: Five cell lines viability, CellTiter-Glo ATP luminescence, 48-72 h
Inconclusive results are not listed. Active and inactive are the calls of the source. The call rests on the fitted dose curve; in most records, active means well fitted inhibition curve with a large enough effect; inconclusive means small, poorly fitted or top-dose-only effect; inactive means flat fitted curve, though single readings scatter.
A correct response names exactly one class from y (active), n (inactive)

Illustrative cases are given below, each with its answer.
[in] Per the records of this test, what outcome belongs to `CC(C)n1nc(-c2cc3cc(O)ccc3[nH]2)c2c(N)ncnc21` ?
[out] y

[in] Another: CC1=C(C(=O)OC(C)C)C(c2cccc([N+](=O)[O-])c2)C(C(=O)OC2CN(C(c3ccccc3)c3ccccc3)C2)=C(N)N1 (stereo unspecified)
[out] y

[in] Another: `CC(=O)O[C@]1(C(C)=O)CC[C@H]2[C@@H]3C[C@H](C)C4=CC(=O)CC[C@]4(C)[C@H]3CC[C@@]21C`
[out] n

[in] Another: `COCc1c(C(C)C)nc(C(C)C)c(/C=C/[C@@H](O)C[C@@H](O)CC(=O)O)c1-c1ccc(F)cc1`
[out] y

[in] Another: `CCCCS(=O)(=O)N[C@@H](Cc1ccc(OCCCCC2CCNCC2)cc1)C(=O)O`
[out] n

Further cases:
[in] Per the records of this test, what outcome belongs to Cc1ccccc1C(=O)Nc1ccc(C(=O)N2CCCC(N(C)C)c3ccccc32)cc1 (stereo unspecified) ?
[out] y

###

# System: CP286
# Assay Procedure: qHTS profiling for inhibitors of Plasmodium falciparum proliferation (AID 504749); note: nearly all actives have a fitted effect of over 60% in size; note: potency is the fitted concentration of half-maximal effect
# Conditions: P. falciparum in erythrocytes, SYBR Green DNA, 72 h; series mostly up to 28.7 µM
Inconclusive results are not listed. The source made the active and inactive calls. The call rests on the fitted dose curve; in most records, active means well fitted inhibition curve with a large enough effect; inconclusive means small, poorly fitted or top-dose-only effect; inactive means flat fitted curve, though single readings scatter.
Observable: Potency

[in] I'd like to know its Potency. The compound in question is `CC(C)COC(=O)c1ccc(N)cc1`
[out] inactive

[in] Another: `C#C[C@]1(O)CC[C@H]2[C@@H]3CCc4cc(OC5CCCC5)ccc4[C@H]3CC[C@@]21C`
[out] inactive

[in] Another: `O=S1(=O)c2cccc3cccc(c23)N1CCCN1CCN(c2ccc(F)cc2)CC1`
[out] inactive

[in] Another: `CCOC(=O)COc1ccc2c(C)c(CCN(CC)CC)c(=O)oc2c1Cl`
[out] inactive

[in] Another: `C=C(CC)C(=O)c1ccc(OCC(=O)O)c(Cl)c1Cl`
[out] 10 µM (active)

[in] Another: CCCCC(CC)CN=C(N)NC(N)=NCCCCCCN=C(N)NC(N)=NCC(CC)CCCC (centres undefined)
[out] 0.631 µM (active)

[in] Another: C[C@H]1[C@H](NC(=O)/C(=N/OC(C)(C)C(=O)O)c2csc(N)n2)C(=O)N1S(=O)(=O)O (stereo in doubt)
[out] inactive

[in] Another: `C[C@@H]1C[C@H]2[C@@H]3CCC4=CC(=O)C=C[C@]4(C)[C@@]3(F)[C@@H](O)C[C@]2(C)[C@H]1C(=O)CO`
[out] inactive

Attention now shifts to the item below.
[in] I'd like to know its Potency. The compound in question is `C[C@@H]1CN(CCCn2c3ccccc3c3ccccc32)C[C@H](C)N1`
[out] 12.6 µM (active)

###

# Assay Procedure: A High-Content qHTS Against Drug Library for the Identification of Small Molecules that Inhibit DYT1 Early Onset Primary Dystonia-Associated Cell Pathology (AID 1645839)
# Conditions: HEK293 Flp-In EGFP-delE TorsinA, punctate imaging, 48 h; series mostly up to 46.1 µM
Results filed as inconclusive are left out. Calls of active or inactive are those of the source. The call rests on the fitted dose curve.
A correct response names exactly one class from active, inactive

Illustrative cases are given below, each with its answer.
[in] Per the records of this test, what outcome belongs to `CCCCCCC[N+](CC)(CC)CCCCc1ccc(Cl)cc1` ?
[out] inactive

[in] Another: `Oc1ccc(Cl)c2cccnc12`
[out] inactive

Here is another compound to look at.
[in] Per the records of this test, what outcome belongs to `COc1cc(C(=S)N2CCOCC2)cc(OC)c1OC` ?
[out] inactive

###

# Assay Procedure: qHTS to identify inhibitors of the type 1 interferon - major histocompatibility complex class I in skeletal muscle: primary screen against the NCATS Pharmaceutical Collection (AID 1347407);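 note: luminescence of HiBiT knocked into endogenous HLA-B as interferon-induced MHC class I level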; note: potency is the fitted concentration of half-maximal effect
# Conditions: human skeletal muscle cells, IFN-b-induced MHC-I HiBiT luminescence, 24 h; series mostly up to 45.9 µM
# Text: Assay Submitter (PI): Travis B. Kinder Ph.D. & James Inglese Ph.D. Assay Development and Screening Technology Laboratory (ADST) National Center for Advancing Translational Sciences (NCATS), Rockville, MD National Institute of Health (NIH), Bethesda, Maryland […]
Records with an inconclusive call do not appear. The source made the active and inactive calls. The call rests on the fitted dose curve; in most records, active means well fitted inhibition curve with a large enough effect; inconclusive means small, poorly fitted or top-dose-only effect; inactive means flat fitted curve, though single readings scatter.
Observable: Potency

Guide cases for Potency, answers given:
[in] I'd like to know its Potency. The compound in question is `CN(C)CCCOc1nn(Cc2ccccc2)c2ccccc12`
[out] inactive

[in] Another: `CCN1CCC[C@H]1CNC(=O)c1c(OC)ccc(Br)c1OC`
[out] inactive

[in] Another: `COc1cc(/C=C/C(=O)O[C@H]2CC[C@]34C[C@]35CC[C@]3(C)[C@@H]([C@H](C)CCC=C(C)C)CC[C@@]3(C)[C@@H]5CC[C@H]4C2(C)C)ccc1O`
[out] inactive

[in] Another: CCN(CCCCOC(=O)c1ccc(OC)c(OC)c1)C(C)Cc1ccc(OC)cc1 (configuration not stated)
[out] inactive

[in] Another: O=C(CCN1CCC(c2ccccc2)C1)c1ccc2c(c1)OCCO2 (configuration not stated)
[out] inactive

[in] Another: COc1cccc(CCc2ccccc2OCC(CN(C)C)OC(=O)CCC(=O)O)c1 (configuration not stated)
[out] inactive

[in] Another: `CCOC(=O)COc1ccc2c(C)c(CCN(CC)CC)c(=O)oc2c1Cl`
[out] 21 µM (active)

[in] Another: `CN(C)CC/C=C1/c2ccccc2COc2ccc(CC(=O)O)cc21`
[out] inactive

[in] Another: `CC(C)(C(=O)c1cccnc1)c1cccnc1`
[out] inactive

[in] Another: CCCCCCCCCCCCCCCCCC(=O)OCC(O)CO (configuration not stated)
[out] inactive

# return Potency for each item in the list
1. CCCCN1CCCC1C(=O)Nc1c(C)cc(C)cc1C (configuration not stated)
2. NC(=O)c1cc[n+](CC2=C(C(=O)[O-])N3C(=O)[C@@H](NC(=O)Cc4cccs4)[C@H]3SC2)cc1
3. CN(C)CCOc1ccccc1Cc1ccccc1
4. C#C[C@]1(O)CC[C@H]2[C@@H]3CCc4cc(OC5CCCC5)ccc4[C@H]3CC[C@@]21C
5. CN1CCN(C(c2ccccc2)c2ccccc2)CC1

[out]
["inactive", "inactive", "inactive", "inactive", "inactive"]

# return Potency for each item in the list
1. CC(C)n1nc(-c2cc3cc(O)ccc3[nH]2)c2c(N)ncnc21
2. CCCCCCC[N+](CC)(CC)CCCCc1ccc(Cl)cc1

[out]
1: 4.7 µM (active); 2: inactive

###

# System: HaCat
# Assay Procedure: Cytotoxic Profiling of Annotated Libraries Using Quantitative High-Throughput Screening (AID 1296008); note: nearly all actives have a fitted effect of over 60% in size; for max response: % is set by controls: 0 for no effect and ±100 for the full control effect
# Conditions: Five cell lines viability, CellTiter-Glo ATP luminescence, 48-72 h; hits give low values
Results filed as inconclusive are left out.
Observable: max response (%)
Numbers only, in %.

Guide cases for max response, answers given:
[in] I'd like to know its max response. The compound in question is NC[C@H]1O[C@H](O[C@H]2[C@H](O[C@@H]3O[C@H](CO)[C@@H](O)[C@H]3O)C(O)[C@H](N)C[C@@H]2N)[C@H](N)[C@@H](O)[C@@H]1O (some centres not stated)
[out] -0.678

[in] Another: `C=C1C[C@H]2[C@@H]3C=C(C)C4=CC(=O)CC[C@]4(C)[C@H]3CC[C@]2(C)[C@@]1(OC(C)=O)C(C)=O`
[out] -2.22

[in] Another: `Cc1ccc(O)c2ncccc12`
[out] 2.26

# return max response for each item in the list
1. C/C=C(/C(=C/C)c1ccc(O)cc1)c1ccc(O)cc1
2. CN(C)CC/C=C1/c2ccccc2COc2ccc(CC(=O)O)cc21
3. CC(=O)Nc1c(I)cc(I)c(C(=O)O)c1I
4. COC(=O)CCc1ccc(OCC(O)CNC(C)C)cc1 (configuration not stated)

[out]
[-0.716, -4.81, 4.29, -0.177]
